# Test system: RPMI-8226 leukemia
# Test summary: NCI-60 one-dose screen, 48 h (100 = growth as untreated, 0 = no growth, -100 = all killed)
# Test settings: 10 µM unless noted
About 83,000 compounds went through this panel and 20% of them were active in at least one assay; those are over-represented in the sample as a whole.
Please use TRUE whenever growth is not below 40%, and FALSE whenever it is.

1) COc1cc(C(=O)NN=C2c3ccccc3-c3ccccc32)cc(OC)c1OC : FALSE
2) NCCOc1ccccc1/C=C1\c2ccccc2-c2ccc([N+](=O)[O-])cc21 : FALSE
3) CCOC(=O)c1sc(-c2ccc(OS(=O)(=O)c3ccccc3[N+](=O)[O-])c(C=O)c2)nc1C : FALSE
4) O=C(NCc1ccccc1)C1CN(c2ccc(Cl)cc2)N(c2ccc(Cl)cc2)C1=O (stereo not given) : TRUE
5) CCOc1cc2c(cc1OCC)C(c1cc(C)c(O)c(C)c1)NCC2 (stereo not given) : TRUE

**Query** Record `Nc1ccccc1-c1ccc(-c2ccc(Cl)cc2)c2c1[nH]c1ccccc12` ; criterion: growth no lower than 40%. Met?
**Result** TRUE

----------
# Test system: IGROV1 ovarian
# Test summary: NCI-60 one-dose screen, 48 h
# Test settings: 10 µM unless noted
Compounds without any hit were thinned out: in the full panel of roughly 83,000, 20% have a hit. Calls of active or inactive are those of the source. Rule for the calls: active = growth percent below 10; inactive = the rest.
Your answer must be one of the following: label 1 = active, label 0 = inactive

Worked examples, 4 compounds total:
1. O=C(/C=C/c1ccc(C(F)(F)F)cc1)c1ccc(Nc2nc(NCCO)nc(N3CCOCC3)n2)cc1 : label 0
2. COc1cc(C(=O)O/N=C(\N)Cc2cccc3ccccc23)cc(OC)c1OC : label 0
3. COc1ccccc1N1C(=N)S/C(=C\c2ccc(OCc3ccccc3F)cc2)C1=O : label 0
4. CC1=CCC(OC(=O)C(C)(C)CCC(O)(C(=O)OC2(C(C)C)CCC3(C)OC3C2)C(C)C)(C(C)C)CC1 (centres undefined) : label 1

**Query** Hi, sorry to bother you, what did the test record for `Clc1ncccc1Nc1ccc2nnc(-c3ccncc3)n2n1` ?
**Result** label 0

**Query** Hi, sorry to bother you, what did the test record for `CCCCN1CCN(c2ccc3nc(-c4ccc5nc(-c6ccc(C(F)(F)F)cc6)[nH]c5c4)[nH]c3c2)CC1` ?
**Result** label 1

**Query** Hi, sorry to bother you, what did the test record for `Oc1ccc(-c2nc(-c3ccc4oc5ccc(-c6[nH]c(-c7ccc(O)cc7)nc6-c6ccccc6)cc5c4c3)c(-c3ccccc3)[nH]2)cc1` ?
**Result** label 0

**Query** Hi, sorry to bother you, what did the test record for COc1nc2c(c(=O)n1C)N=C1c3ccccc3C(=O)C1C(c1ccccc1)N2 (centres undefined) ?
**Result** label 0

**Query** Hi, sorry to bother you, what did the test record for `NCCNc1nc2ccccc2c2c(=O)c3cc(F)cc(Cl)c3sc12` ?
**Result** label 0

----------
# Tested on: A549/ATCC NSCLC
# Test summary: NCI-60 one-dose screen, 48 h (100 = growth as untreated, 0 = no growth, -100 = all killed)
# Test settings: 10 µM unless noted
# Experimental: Growth inhibition of the A549/ATCC human Non-Small Cell Lung tumor cell line is measured as a screen for anti-cancer activity. Cells are grown in 96 well plates and exposed to the test compound for 48 hours. Compounds are tested at a single concentration, which is 10^-5 M for most compounds. The reported endpoint is percent growth (GI% or GIPRCNT), where numbers from 0 - 100% represent growth inhibition, and numbers from -100% - 0 represent cell death. […]
This is part of a sample that, as a whole, favours compounds with a hit. Of some 83,000 tested, about 20% had one in any assay. Active and inactive are the calls of the source. Rule for the calls: active = growth percent below 10; inactive = the rest.
Please provide measured growth for the entries that follow.

Would you please look over these solved cases?
1. NCCOc1ncccc1/C=C1\c2ccccc2-c2ccc([N+](=O)[O-])cc21 : -58.6% (active)
2. O=C(Nc1ccccc1O)c1ccc(-c2ccc(Cl)cc2Cl)o1 : 102% (inactive)
3. CN(C)CCNc1cc(-c2ccccc2)nc2ccccc12 : -53.8% (active)
4. COc1cc(C=C2C(=O)N(C)C(=O)N(C)C2=O)cc(CN2CCCCC2)c1O : 100% (inactive)
5. CNCCNc1nc2ccccc2c2c(=O)c3cccc(OC)c3sc12 : 17.9% (inactive)
6. O=c1oc2ccc(F)cc2c(=O)n1-c1ccc(I)cc1F : 5.88% (active)
7. COc1ccc(-c2nnc(COc3ccc(C(=O)/C=C/c4ccco4)cc3)o2)cc1 : 87% (inactive)
8. C=C[C@@H]1CCC/C=C/[C@@H]2C[C@H](O)C[C@H]2[C@H](O)/C=C/C(=O)O1 : 22.6% (inactive)

Quick batch: growth for everything below.
1. O=c1oc2ccc(Br)cc2c(=O)n1-c1ccc(I)cc1F
2. CN1C(=O)N(C)C2Nn3c(s/c(=C4\C(=O)N(CCc5ccccc5)c5ccccc54)c3=O)=NC21 (stereo unspecified)
3. CC(C)C[C@H](C(=O)N[C@@H](C)C(N)=O)N1CC=CCN(O)S1(=O)=O
4. c1ccc2c(c1)oc1cc3sccc3nc12

**Result**
6.38% (active)
55.6% (inactive)
102% [5 µM] (inactive)
102% (inactive)

Quick batch: growth for everything below.
1. Nc1ccc(-c2nc3cc(Oc4ccc(Oc5ccc6[nH]c(-c7ccc(N)cc7)nc6c5)cc4)ccc3[nH]2)cc1
2. CNCCNc1nc2ccccc2c2c(=O)c3cc(OC)ccc3sc12
3. COc1c2ccoc2c(/C=C/C=O)c2oc(-c3ccccc3)cc(=O)c12
4. COc1ccc(/C=C/C(=O)c2c(C)nc3ccccc3c2/C=C/c2ccccc2)cc1O
5. CCN1C(=O)N(c2ccccc2)C2Nn3c(s/c(=C4\C(=O)N(C(C)C)c5ccccc54)c3=O)=NC21 (stereo unspecified)
6. O=S(=O)(c1ccc(NC(=S)NC23CC4CC(CC(C4)C2)C3)cc1)N1CCCCC1
7. CN1C(=O)N(C)C2(c3ccccc3)n3c(s/c(=C\c4ccccc4)c3=O)=NNC12c1ccccc1 (stereo unspecified)

**Result**
["96.8% (inactive)", "24.6% (inactive)", "91.3% (inactive)", "39.5% (inactive)", "104% (inactive)", "72.5% (inactive)", "89.1% (inactive)"]

Quick batch: growth for everything below.
1. CCOc1ccc2nc(C)cc(Nc3ccc(Br)cc3)c2c1
2. CCCCC1COc2cccc3c2N1C=C/C3=C\C(=O)N(C)c1ccccc1 (stereo unspecified)

**Result**
1. 95.2% (inactive)
2. 71.6% (inactive)

Data origin, for the record: PubChem BioAssay (NCI)
